test: Clearance in rat at 2 mg/kg; format: ADME, organism-based; design: dose 2 mg/kg; conditions: in vivo
quantityMeasured: clearance (mL/min/kg)
Give your result in mL/min/kg as a bare value.

Per the record, `COc1cc2ncnc(Oc3ccc(CC(=O)Nc4cnn(C(C)C)c4)cc3)c2cc1OC` has clearance of 8.9

----------
molecular target: Vascular endothelial growth factor receptor 2 (Homo sapiens)
quantityMeasured: IC50 (nM)
Give your result in nM as a bare value.

Entry `COc1cccc(NC(=O)Cc2ccc(Oc3ncnc4cc(OC)c(OC)cc34)cc2)c1` , tested on Vascular endothelial growth factor receptor 2 (Homo sapiens), has a reported IC50 of 8

Entry `COc1cc2ncnc(Oc3cnn(CC(=O)Nc4ccc(N(C)C)cn4)c3)c2cc1OC` , tested on Vascular endothelial growth factor receptor 2 (Homo sapiens), has a reported IC50 of 39

Entry `CCn1ccc(NC(=O)Cc2ccc(Oc3ncnc4cc(OC)c(OC)cc34)cc2)n1` , tested on Vascular endothelial growth factor receptor 2 (Homo sapiens), has a reported IC50 of 172

Entry `COc1cc2ncnc(Nc3cnn(CC(=O)Nc4ccc(N(C)C)cn4)c3)c2cc1OC` , tested on Vascular endothelial growth factor receptor 2 (Homo sapiens), has a reported IC50 of 453

Entry `COc1cccc(NC(=O)Cn2cc(Oc3ncnc4cc(OC)c(OCCN5CCCCC5)cc34)cn2)c1` , tested on Vascular endothelial growth factor receptor 2 (Homo sapiens), has a reported IC50 of 31

Entry `COc1cccc(NC(=O)Cn2cc(Nc3ncnc4cc(OC)c(OC)cc34)cn2)c1` , tested on Vascular endothelial growth factor receptor 2 (Homo sapiens), has a reported IC50 of 25

Entry `COc1cccc(NC(=O)Cn2cc(Oc3ncnc4cc(OC)c(OC)cc34)cn2)c1` , tested on Vascular endothelial growth factor receptor 2 (Homo sapiens), has a reported IC50 of 0.4

Entry `COc1cc2ncnc(Nc3cnn(CC(=O)Nc4ccc(N(C)C)cc4)c3)c2cc1OC` , tested on Vascular endothelial growth factor receptor 2 (Homo sapiens), has a reported IC50 of 101

Entry `CCn1cc(NC(=O)Cn2cc(Oc3ncnc4cc(OC)c(OC)cc34)cn2)cn1` , tested on Vascular endothelial growth factor receptor 2 (Homo sapiens), has a reported IC50 of 35

----------
assay: Oral bioavailability in rat at 2 to 5 mg/kg; assay type: ADME, organism-based; conditions: in vivo
quantityMeasured: bioavailability
# output: number + unit

Per the record, `COc1cc2ncnc(Oc3ccc(CC(=O)Nc4cnn(C(C)C)c4)cc3)c2cc1OC` has bioavailability of 34%

----------
biological target: Macrophage colony-stimulating factor 1 receptor (Homo sapiens, UniProt P07333)
Sequence (P07333 whole entry): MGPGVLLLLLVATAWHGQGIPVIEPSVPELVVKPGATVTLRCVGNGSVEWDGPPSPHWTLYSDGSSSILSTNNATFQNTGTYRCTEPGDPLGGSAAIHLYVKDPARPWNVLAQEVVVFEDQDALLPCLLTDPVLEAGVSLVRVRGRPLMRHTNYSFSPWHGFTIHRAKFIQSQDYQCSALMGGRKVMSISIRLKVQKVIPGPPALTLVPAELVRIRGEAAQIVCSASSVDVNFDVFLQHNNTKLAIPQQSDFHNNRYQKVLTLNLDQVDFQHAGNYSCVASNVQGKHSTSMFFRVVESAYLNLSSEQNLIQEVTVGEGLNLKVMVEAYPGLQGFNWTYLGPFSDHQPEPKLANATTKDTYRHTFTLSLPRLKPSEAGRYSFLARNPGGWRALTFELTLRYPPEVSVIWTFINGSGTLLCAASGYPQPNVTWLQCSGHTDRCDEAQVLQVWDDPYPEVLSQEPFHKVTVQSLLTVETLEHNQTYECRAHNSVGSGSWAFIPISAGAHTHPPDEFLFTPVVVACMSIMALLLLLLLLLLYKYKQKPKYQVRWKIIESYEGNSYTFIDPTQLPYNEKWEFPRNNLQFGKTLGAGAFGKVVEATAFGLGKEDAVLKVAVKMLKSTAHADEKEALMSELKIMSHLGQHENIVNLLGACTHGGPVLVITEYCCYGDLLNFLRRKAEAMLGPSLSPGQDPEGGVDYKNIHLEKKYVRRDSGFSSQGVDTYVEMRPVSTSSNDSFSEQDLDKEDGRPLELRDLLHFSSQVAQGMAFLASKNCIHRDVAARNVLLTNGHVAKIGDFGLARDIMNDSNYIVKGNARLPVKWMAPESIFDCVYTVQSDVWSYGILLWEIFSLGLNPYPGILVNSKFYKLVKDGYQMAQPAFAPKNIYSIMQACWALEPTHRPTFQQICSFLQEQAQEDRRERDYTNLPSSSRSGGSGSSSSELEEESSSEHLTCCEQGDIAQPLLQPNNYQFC
pIC50: −log10 of the molar value.
Parameter threshold = 7. Response is True when pIC50 meets or exceeds it, else False.

See these solved cases before continuing.
                                 smilestext  assignedcategory
0  COc1cc2ncnc(Oc3ccc(CC(=O)Nc4ccc(N(C)C)cn4)cc3)c2cc1OC             False
1  COc1cccc(NC(=O)Cc2ccc(Nc3ncnc4cc(OC)c(OC)cc34)cc2)c1             False
2  COc1cc2ncnc(Nc3cnn(CC(=O)Nc4ccc(N(C)C)cn4)c3)c2cc1OC             False
3  COc1cccc(NC(=O)Cn2cc(Oc3ncnc4cc(OC)c(OCCN5CCCCC5)cc34)cn2)c1             False
4  CCc1cc(NC(=O)Cc2ccc(Oc3ncnc4cc(OC)c(OC)cc34)cc2)n[nH]1             False
5  COc1cc2ncnc(Oc3ccc(CC(=O)Nc4cn[nH]c4)cc3)c2cc1OC             False
6  COc1cccc(NC(=O)Cc2cccc(Oc3ncnc4cc(OC)c(OC)cc34)c2)c1             False
7  COc1cccc(S(=O)(=O)NCc2ccc(Oc3ncnc4cc(OC)c(OC)cc34)cc2)c1             False
8  COc1cc2ncnc(Oc3ccc(CC(=O)Nc4cnn(C)c4)cc3)c2cc1OC             False
9  COc1cccc(NC(=O)Cn2cc(Oc3ccnc4cc(OC)c(C#N)cc34)cn2)c1              True

Next:
Query: Entry `COc1cccc(NC(=O)Cn2cc(Oc3ccnc4cc(OC)c(OC)cc34)cn2)c1` : is its pIC50 no less than 7?
Reply: True

----------
target: Aurora kinase B (Homo sapiens, UniProt Q96GD4)
Sequence (Q96GD4 whole entry): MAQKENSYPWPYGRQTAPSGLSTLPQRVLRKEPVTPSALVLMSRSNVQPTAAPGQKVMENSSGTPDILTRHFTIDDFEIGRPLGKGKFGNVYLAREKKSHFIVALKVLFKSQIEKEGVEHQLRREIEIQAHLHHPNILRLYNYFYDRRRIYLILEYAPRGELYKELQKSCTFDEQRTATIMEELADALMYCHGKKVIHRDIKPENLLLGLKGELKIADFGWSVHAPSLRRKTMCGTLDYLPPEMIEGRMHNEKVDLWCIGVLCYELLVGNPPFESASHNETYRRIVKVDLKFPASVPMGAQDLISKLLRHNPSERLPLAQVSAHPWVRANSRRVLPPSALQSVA
pIC50: −log10 of the molar value.
quantityMeasured: pIC50

Entry `COc1cc2ncnc(Nc3cnn(CC(=O)Nc4ccc(N(C)C)cc4)c3)c2cc1OC` , tested on Aurora kinase B (Homo sapiens, UniProt Q96GD4), has a reported pIC50 of < 8.00

----------
experiment: Half life in dog at 2 mg/kg, po; format: ADME, organism-based, Canis lupus familiaris; set-up: dose 2 mg/kg, route oral; details: in vivo
quantityMeasured: half-life
# output: number + unit

Per the record, `COc1cc2ncnc(Oc3ccc(CC(=O)Nc4cnn(C(C)C)c4)cc3)c2cc1OC` has half-life of 6.8 h

----------
Measured pIC50, listed per entry for reference.
Molecular target: Receptor-type tyrosine-protein kinase FLT3 (Homo sapiens)
Sequence (P36888 whole entry): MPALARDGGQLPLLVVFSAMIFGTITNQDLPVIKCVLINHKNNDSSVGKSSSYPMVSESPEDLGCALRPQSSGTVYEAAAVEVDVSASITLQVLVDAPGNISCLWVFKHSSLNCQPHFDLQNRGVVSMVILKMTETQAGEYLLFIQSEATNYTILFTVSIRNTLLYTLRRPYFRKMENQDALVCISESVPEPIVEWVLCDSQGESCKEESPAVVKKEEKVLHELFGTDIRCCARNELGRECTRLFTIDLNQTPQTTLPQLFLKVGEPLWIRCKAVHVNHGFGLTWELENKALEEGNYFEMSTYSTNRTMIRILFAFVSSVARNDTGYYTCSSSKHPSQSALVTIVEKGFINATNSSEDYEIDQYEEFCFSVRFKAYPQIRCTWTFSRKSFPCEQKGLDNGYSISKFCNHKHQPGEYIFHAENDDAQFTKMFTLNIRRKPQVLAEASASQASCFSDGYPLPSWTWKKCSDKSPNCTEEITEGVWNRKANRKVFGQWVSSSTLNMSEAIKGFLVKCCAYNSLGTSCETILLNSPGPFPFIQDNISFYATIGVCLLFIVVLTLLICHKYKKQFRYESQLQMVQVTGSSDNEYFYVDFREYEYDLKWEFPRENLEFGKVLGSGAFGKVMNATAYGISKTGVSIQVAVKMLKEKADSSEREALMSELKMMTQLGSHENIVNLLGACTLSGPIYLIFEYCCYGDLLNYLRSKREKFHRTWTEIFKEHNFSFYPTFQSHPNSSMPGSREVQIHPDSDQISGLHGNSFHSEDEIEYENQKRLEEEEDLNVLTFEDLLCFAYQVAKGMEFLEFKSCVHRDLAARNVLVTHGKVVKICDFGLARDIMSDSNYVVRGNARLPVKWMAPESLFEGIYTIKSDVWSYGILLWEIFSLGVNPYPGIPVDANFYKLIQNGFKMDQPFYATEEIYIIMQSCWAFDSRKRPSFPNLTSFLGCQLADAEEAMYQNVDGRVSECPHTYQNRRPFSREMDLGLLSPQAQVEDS
Keep it numeric: pIC50 is minus log10 of the concentration in mol/L.

These recorded examples may help you get a feel for the data.
                                 smilestext                           targetundertest  quantitymeasured  reported
0  COc1cc2ncnc(Oc3ccc(CC(=O)Nc4cnn(C)c4)cc3)c2cc1OC  Receptor-type tyrosine-protein kinase FLT3 (Homo sapiens)             pIC50      7.10
1  COc1cccc(COc2ccc(Oc3ncnc4cc(OC)c(OC)cc34)cc2)c1  Receptor-type tyrosine-protein kinase FLT3 (Homo sapiens)             pIC50      7.70
2  CCc1cc(NC(=O)Cc2ccc(Oc3ncnc4cc(OC)c(OC)cc34)cc2)n[nH]1  Receptor-type tyrosine-protein kinase FLT3 (Homo sapiens)             pIC50      8.30
3  COc1cc2ncnc(Nc3cnn(CC(=O)Nc4ccc(N(C)C)cc4)c3)c2cc1OC  Receptor-type tyrosine-protein kinase FLT3 (Homo sapiens)             pIC50      8.40
4  COc1cc2ncnc(Nc3cnn(CC(=O)Nc4cccc(F)c4)c3)c2cc1OC  Receptor-type tyrosine-protein kinase FLT3 (Homo sapiens)             pIC50      8.40

Would you kindly look at the next entry?
Per the record, `COc1cccc(CC(=O)Nc2ccc(Oc3ncnc4cc(OC)c(OC)cc34)cc2)c1` has pIC50 of 8.00

----------
test: Oral bioavailability in dog at 2 to 5 mg/kg; format: ADME, organism-based, Canis lupus familiaris; conditions: in vivo
quantityMeasured: bioavailability
# output: number + unit

Per the record, `COc1cc2ncnc(Oc3ccc(CC(=O)Nc4cnn(C(C)C)c4)cc3)c2cc1OC` has bioavailability of 23%
